test-readout: melting point

// query Value lookup for melting point; key = "CCC(CC)c1nn(-c2ccc(C(F)(F)F)nn2)cc1CCCOc1c(CC(=O)O)cccc1OC"
// result 81 to 82 °C

// query Which melting point reading was recorded for the molecule O=C1C2CCCCC2(Cl)C(=O)N1c1ccc(Cl)cc1 (stereo not given) ?
// result 116 to 118 °C

// query What melting point value was documented for this molecule, "CCOC(=O)c1cc(C(=O)Nc2ccccc2OC(C)=O)cc(Cl)c1O" ?
// result 163 to 166 °C

// query # get_value(readout='melting point', item= CON=C1C=CC=CC1CC(=O)OC (stereo not given) )
// result 96 to 97 °C

// query Given "CCCCNCc1cn(CCC(=O)NC(C)(C)c2ccc(Cl)cc2)cn1" , state its recorded melting point.
// result 115 to 117 °C

// query Which measured melting point value corresponds to "COC(=O)c1ccc(OC)c2oc3ccnc(O)c3c12" ?
// result 205 to 207 °C

// query Return reported melting point; argument: "CNC(=O)Oc1ccc2oc3ccccc3c2c1"
// result 155 to 156 °C

// query Consider the molecule "Cc1ccc(-n2nc3c(cc2=O)CCCc2sc(C=O)cc2-3)cc1" and give its measured melting point.
// result 127 to 129 °C

// query Given the entry CC1CCc2ncc(-c3ccccc3)c(=O)n21 (stereo not given) , report its measured melting point.
// result 118 to 122 °C

// query Which value of melting point has been reported for "COC(=O)c1c(OCc2ccccc2)ccc2c1CCCC2" in the records?
// result 59 to 61 °C

// query What does the data say about its melting point? Entry: "CC(C)NS(=O)(=O)c1ccc(-c2ccc3nnn(Cc4ccc5ncccc5c4)c3n2)cc1"
// result 154 to 156 °C

// query Need melting point of "CSc1nc(=O)cc(N)n1-c1ccc(Br)cc1" , thanks.
// result 138 to 140 °C

// query Dear colleague, I am looking for the recorded melting point of the following molecule: "CCCc1nn(C)c2c(=O)[nH]c(-c3sc(S(=O)(=O)N4CCN(C)CC4)cc3OCC)nc12"
// result 219 to 220 °C

// query Any idea what its melting point is? The molecule is CC(C(=O)O)c1ccc(-c2ccc(F)cc2F)c(F)c1 (stereo not given)
// result 105 to 108 °C

// query Can you share its melting point? I mean this molecule: "CN1OCCN(c2ccc(Cl)cc2Cl)C1=O"
// result 94 to 95 °C

// query Which melting point value belongs to COc1ccc(Cn2c3ccccc3c3c(N)c4c(nc32)CC(c2ccccc2)CC4=O)cc1 (stereo not given) ?
// result 163 to 165 °C

// query Need melting point, item CSC[C@H]1C[C@H](C(=O)O)CS1 (relative stereo)
// result 74.8 to 76 °C

// query // melting point lookup, key: CC12CCC3c4ccc(OC(=O)c5ccccc5)cc4CCC3C1CCC2OC(=O)c1cccnc1 (stereo not given)
// result 151 to 154 °C

// query Name the reported melting point value associated with the molecule COCCN(C1CC(C)(C)Oc2ccc(O)cc21)S(C)(=O)=O (stereo not given)
// result 115 to 117 °C

// query Value lookup for melting point; key = O=C1CN(NC(=O)NC(C(=O)O)c2ccccc2)C(=O)N1 (stereo not given)
// result 139 to 143 °C

// query I have this molecule here, "Cc1cn(N=Cc2cc(C(C)(C)C)c(O)c(C(C)(C)C)c2)cn1" , and I need its recorded melting point.
// result 150 to 151 °C

// query Recorded melting point for "COc1ccc(Oc2c(Br)cc(C=O)cc2Br)cc1Cc1ccc(=O)[nH]n1" , please?
// result 183 to 184 °C

// query Sample "CNc1cc(OC)ccc1[N+](=O)[O-]" — what was its melting point?
// result 107 to 110 °C

// query Entry CCCNC(=O)C(C)Cc1ccc2c(c1)c(Cc1ccc(C(=O)O)cc1OC)cn2CCC (single isomer, unassigned; (-)) : reported melting point = ?
// result 85 to 93 °C

// query Quick check: melting point of "Clc1nc(Cl)nc(Nc2ccc(OCc3ccccc3)c(Cl)c2)n1" ?
// result 145 °C

// query Looking for the measured melting point of CC(c1cc2ccccc2s1)N(OC(=O)OC(C)(C)C)C(N)=O (stereo not given) , can you help?
// result 120 to 122 °C

// query Query (molecule): "Nc1nc(Cl)c(Cl)c(NCC2(CO)CCC2)n1" ; field requested: melting point
// result 179 to 181 °C

// query Return reported melting point; argument: "Cc1nc2ccccn2c(=O)c1CCN1CCC(C(=O)c2ccc(F)cc2)CC1"
// result 139 °C

// query Requested read-out: melting point. Entry: "CCc1c(-c2ccc(O)cc2)c2ccc3ccc(COCCN4CCCC4)c1n32"
// result 183 to 187 °C

// query Report melting point for "Cc1nc(C(Cl)(Cl)Cl)nc(O)c1Cl" please.
// result 130 to 145 °C

// query Bench note: what melting point did "CC(=O)NN=C(c1ccccc1)c1cc(C(C)(C)C)c(O)c(C(C)(C)C)c1" show?
// result 205 to 206 °C

// query So what's the measured melting point for this one? CC1CC2C3CCC4=CC(=O)CCC4=C3CCC2(C)C1O (stereo not given)
// result 146 to 148 °C

// query Please report the recorded melting point for CNc1ccccc1CNC(=O)C1Cc2ccccc2N1S(=O)(=O)c1ccc(-c2cccc(C(F)(F)F)c2)cc1 (stereo not given) .
// result 86 °C

// query Could you tell me which melting point is on file for "CCc1cccc(C)c1CNc1cc(C(=O)O)cn2nc(C)nc12" ?
// result 264 °C

// query Look at this molecule and give its reported melting point. "COc1ccc(-c2cc(C(F)(F)F)n(C)c2-c2ccc(OC)cc2)cc1"
// result 125 to 126 °C

// query # lookup: melting point of "COc1cccc(C2(C#N)CCN(C(=O)CN3CCN(c4cnccn4)CC3)CC2)c1"
// result 108 °C

// query melting point lookup needed for "Cc1ccc(C(=O)NCCCCN2CCN(C(c3ccccc3)c3ccccc3)CC2)c(O)n1" , thanks.
// result 213 to 214 °C

// query Requested field: melting point. Item: "CCOC(=O)c1nc(-c2ccc(=O)n(CC)c2)c(-c2ccccc2)nc1N"
// result 175 to 179 °C

// query Can you share its melting point? I mean this molecule: "COc1cccc2c(C)c3n(c(=O)c12)CCCS3"
// result 122 to 123 °C

// query Which melting point is listed for "Cc1cc(OCCc2nc(-c3ccc(-c4ccccc4)cc3)oc2C)ccc1OC(C)(C)C(=O)O" ?
// result 122 to 123 °C

Data origin, for the record: a melting point compilation (Tetko et al.; mined from patent text by program, amines drawn as free bases though some values may be those of a salt)
